Tested on: OVCAR-8 ovarian
procedure_text: NCI tumour cell line growth inhibition, 48 h
Please provide measured TGI for the entries that follow.

Form: molecule = `Nc1cc(-c2ccc(Cl)cc2)nn1-c1nnc(/C=C/c2ccco2)c(=O)[nH]1` ; TGI = 33 µM

Memo: `C[C@H]1OC(=O)[C@@H]2N=NN(Cc3ccccc3)[C@H]12` , reported TGI: > 100 µM

Lab note: `COc1ccc([C@H]2C=[N+]([O-])O[C@H](OC3CCCC3)[C@@H]2OC(C)=O)cc1OC` gave TGI of 62.2 µM

TGI measured on COc1cc(/C=C2\CCC(C)/C(=C\c3cc(OC)c(OC)c(OC)c3)C2=O)cc(OC)c1OC (stereo not drawn) = 9.52 µM

TGI recorded for this molecule, CSc1nc2c(ncn2C2OC(CO)C(O)C(O)C2O)c(=O)[nH]1 (stereo not drawn) , is > 100 µM

Value of TGI reported for the molecule `CC1(C)CC(=O)C(CC2C(=O)c3ccccc3C2=O)C(=O)C1` is > 100 µM

Documented TGI of CC(C)(C)OC(=O)NC1CCCC1=O (stereo not drawn) : > 100 µM

Query CC(C)(C)c1ccc(OC2CCO2)cc1 (stereo not drawn) yields TGI of > 100 µM

The value of TGI measured for the molecule `N#Cc1c(-c2ccccc2)c2c([nH]c1=O)-c1cc([N+](=O)[O-])ccc1CCC2` turned out to be > 100 µM

Record `N.N.N.N.N.O=S(=O)([O-])S(=O)(=O)[O-].[Co+3]` , field TGI: > 100 µM

For reference, reported TGI for `O=[N+]([O-])c1ccc2c(c1)c(N=NC(=S)Nc1ccc(Cl)cc1)c(O)n2CN1CCOCC1` stands at 23.4 µM

Query CC(C)C(N)C(=O)NC(CCC(=O)NCCCCC(N)C(=O)NCCCNc1ccc([N+](=O)[O-])c2[nH]c3ccccc3c(=O)c12)C(N)=O (stereo not drawn) yields TGI of > 100 µM

# TGI of O=C(NN1C(=O)CSC1c1cccc(F)c1)c1ccncc1 (stereo not drawn) = > 100 µM

Form field TGI, entry `COc1c(O)c(OC)c2oc(-c3ccc(O)cc3)c(OC)c(=O)c2c1O` : > 100 µM

The measured TGI associated with `COc1ccc(C2=C(N3CCc4ccccc43)C(=O)NC2=O)cc1` reads > 25 µM

Form field TGI, entry `COc1cc2nc(-c3ccc(C(F)(F)F)cc3)cc(OCCCN3CCCC3)c2cc1OC` : > 49.7 µM

Lookup result for `O=C1CNS(=O)(=O)N1` ; measured TGI: > 100 µM

Briefly, TGI measured for `C/C(=C\CO)CC/C=C(\C)CNc1ccc([N+](=O)[O-])cc1` : > 100 µM

---

Test system: HOP-92 NSCLC
procedure_text: NCI tumour cell line growth inhibition, 48 h
Can you tell me log10 of TGI for the items I'm about to list?
Note: values are log10 of TGI expressed in µM.

Form: compound = `O=C1c2ccccc2-c2c1c1c(NCCCO)nc3ccccc3c1n2Cc1ccccc1` ; log10 of TGI = 1.44

response.value for `O=C(NCCN1CCNCC1)c1ccc(Nc2nc3ccccc3c3occc23)cc1` (field: log10 of TGI) = 1.20

// log10 of TGI lookup, compound = `COc1cc2nc(-c3ccc(C(F)(F)F)cc3)cc(OCCCN3CCCC3)c2cc1OC` , result: 0.75

Given item O=C1OC(c2ccccc2)N(C(=O)c2ccccc2)C1Cc1ccc(OCc2ccccc2)cc1 (stereo not given) , the value recorded as its log10 of TGI is 1.73

Looking up O=C1C(C(O)(C(F)(F)F)C(F)(F)F)CCC1C(O)(C(F)(F)F)C(F)(F)F (stereo not given) , I see its log10 of TGI listed as -0.61

What the record says about `CC(C)[O-].CC(C)[O-].O=c1cccccc1[O-].O=c1cccccc1[O-].[Ti+4]` : log10 of TGI is 1.96

So, `CCN(CC)CCO/N=C1\CC[C@H]2[C@@H]3CCc4cc(OC)ccc4[C@H]3CC[C@]12C` ? Its log10 of TGI was 0.86

Record `O=C(/C=C/c1cccc(O)c1)c1cccc(-n2cc(-c3ccc4ccccc4c3)[nH]c2=O)c1` , field log10 of TGI: 0.94

For `COc1ccc(C2=C(N3CCc4ccccc43)C(=O)NC2=O)cc1` the compound record lists log10 of TGI as 1.29

Quick note, log10 of TGI for COc1cc(C2c3cc4c(cc3[C@@H](Nc3ccc5c(c3)OCO5)C3COC(=O)[C@H]23)OCO4)cc(OC)c1O (stereo not given in full) landed at 0.92

log10 of TGI measured on `O=[N+]([O-])c1ccc(-c2cc3c(Nc4ccc(Cl)c(C(F)(F)F)c4)ncnc3s2)cc1` = 0.69

compound `CCN(CC)c1ccc(/C=C/C2=[N+](C)c3ccccc3C2(C)C)c(C)c1` , log10 of TGI observed: -0.83

The compound `CCOC(=O)c1sc2ncnc(N)c2c1C` showed log10 of TGI equal to 1.96

All values here come from PubChem BioAssay (NCI).
